Listed next: entries and their corresponding Plant response rating, Kochia.
Test system: Kochia (Kochia scoparia)
Experiment: Test A postemergence
Type: in vivo
Settings: 500 g ai/ha, postemergence; 0 to 100 scale, 0 no effect, 100 complete control
Text: […]

Below, 4 molecules whose answers are already recorded.
O=C(Nc1cccc(F)c1F)C1C(=S)NCC1c1cccc(C(F)(F)F)c1 (stereo not shown); 0
Cc1ccc(C2CN(C)C(=O)C2C(=O)Nc2ccccc2F)cc1F (stereo not shown); 60
Cc1c(F)ccc(NC(=O)C2C(=O)NCC2c2cc(F)cc(F)c2)c1F (stereo not shown); 0
Cc1ccc(C2CNC(=O)C2C(=O)Nc2ccc(F)cc2F)cc1F (racemic); 0

Any idea what Plant response rating, Kochia was measured for O=C1NCC(c2ccc(Br)cc2)C1C(=O)Nc1ccccc1F (stereo not shown) ?
50

Likewise for Cc1cccc(C2CNC(=O)C2C(=O)Nc2ccccc2F)c1 (racemic) ?
40

Thanks! And COc1ccc(NC(=O)C2C(=O)NCC2c2ccc(F)c(F)c2)c(F)c1 (stereo not shown) ?
0

---

Tested on: wheat (winter wheat, Triticum aestivum)
Assay: Test C preemergence
Format: in vivo
Settings: 62 g ai/ha, scale 0 to 100, 0 no effect, 100 complete control
Quick reference for Plant response rating, Wheat among some compounds
The reply should be a number, written without any unit.

Below, each entry is followed by its recorded Plant response rating, Wheat result.
CN1CC(c2ccc(F)c(C(F)(F)F)c2)C(C(=O)Nc2ccccc2S(C)(=O)=O)C1=O (stereo not shown); 55
CN1CC(c2ccc(C(F)(F)F)c(F)c2)C(C(=O)Nc2ccccc2F)C1=O (stereo not shown); 15

Request the reported Plant response rating, Wheat associated with CN1CC(c2ccc(C(F)(F)F)c(F)c2)C(C(=O)Nc2cccc(F)c2F)C1=O (stereo not shown)
10

Same question, CN1CC(c2cccc(OC(F)(F)C(F)F)c2)C(C(=O)Nc2cccc(F)c2F)C1=O (stereo not shown) this time
35

---

System: wheat (Triticum aestivum)
Test: Test A postemergence
Format: in vivo
Details: Triticum aestivum, post-emergence, 240 h, 125 g ai/ha, Postemergence, visual rating about 10 d after treatment; read-out: Wheat plant response rating (0 to 100 scale)
reportedProperty: plant injury at 125 g/ha (%)
Answer format: numeric, % implied, no suffix.

A selection of reference data follows.
O=C1NCC(c2ccccc2)C1C(=O)Nc1cc(F)ccc1F (centres unmarked); 0
CN1C[C@H](c2ccc3c(c2)OC(F)(F)O3)[C@@H](C(=O)Nc2ccc(F)nc2F)C1=O; 50
COc1cc([C@H]2CN(C)C(=O)[C@@H]2C(=O)Nc2ccccc2S(C)(=O)=O)ccc1F; 0
Cc1cc(F)cc([C@H]2CNC(=O)[C@@H]2C(=O)Nc2ccccc2S(C)(=O)=O)c1; 0

Note: attention shifts to another entry.
Need plant injury at 125 g/ha, item `CN1C[C@H](c2ccc(C(F)(F)F)cc2)[C@@H](C(=O)Nc2ccccc2-n2cccn2)C1=O`
0

---

Reported pest or weed control at 250 g/ha values follow for various molecules
Test system: giant foxtail (Setaria faberi)
Experiment: Test G Post-Emergence Protocol
Format: in vivo
Settings: Setaria faberi, post-emergence, 312 h, 250 g ai/ha, evaluated after 13 days, 100=total damage to plant, 0=no damage to plant, read-out: Foxtail, Giant damage rating
Excerpt: Seeds of corn (Zea mays), giant foxtail (Setaria faberi), barnyardgrass (Echinochloa crus-galli), ivy-leaved morning glory (Ipomoea hederacea), redroot pigweed (Amaranthus retroflexus) and velvetleaf (Abutilon theophrasti) were sown in standard soil in pots. […]
Provide the reading as a plain figure in %.

CSc1ccncc1NC(=O)[C@H]1C(=O)N(C)C[C@@H]1c1cccc(C(F)(F)F)c1 (racemic); 50

Request the reported pest or weed control at 250 g/ha associated with CN1C[C@H](c2ccc(C(F)(F)F)cc2)[C@@H](C(=O)Nc2cccc(F)c2S(C)(=O)=O)C1=O (racemic)
80

Proceed to CN1C[C@H](c2cccc(C(F)(F)F)c2)[C@@H](C(=O)Nc2cnccc2C#N)C1=O (racemic)
70

Same question, COc1cc(OC(F)(F)F)cc(C2CN(C)C(=O)C2C(=O)Nc2cccc(F)c2F)c1 (stereo not drawn) this time
80

Item: `CN1C[C@@H](c2cccc(C(F)(F)F)c2)[C@H](C(=O)Nc2cccc(F)n2)C1=O`
0

Let us now turn to CN1C[C@H](c2ccc(C(F)(F)F)cc2)[C@@H](C(=O)Nc2cccc(F)[n+]2[O-])C1=O (racemic)
10

---

Listed next: entries and their corresponding Plant response rating, Galium.
Test system: Galium (catchweed bedstraw, Galium aparine)
Assay: Test C preemergence
Format: in vivo
Conditions: 250 g ai/ha, scale 0 to 100, 0 no effect, 100 complete control
Give the figure by itself; no unit, no explanation.

As a guide, the following entries are already answered.
O=C1NCC(c2cccc(C(F)(F)F)c2F)C1C(=O)Nc1cccc(F)c1F (stereo not shown) [Compound 591]; 80
CC(C)Oc1cccc(C2CN(C)C(=O)C2C(=O)Nc2ccccc2S(C)(=O)=O)c1 (stereo not shown) [Compound 653]; 40
Cc1ccc(C2CN(C)C(=O)C2C(=O)Nc2ccccc2F)cc1F (stereo not shown) [Compound 465]; 98

We now examine a further compound.
Can you share its Plant response rating, Galium? I mean this compound: CN1CC(c2cc(F)cc(F)c2)C(C(=O)Nc2cccc(F)c2F)C1=O (stereo not shown) [Compound 644]
98

---

Collected pest or weed control at 125 g/ha values appear next to each entry.
System: Kochia (Kochia scoparia)
Test: Test A preemergence
Format: in vivo
Conditions: Bassia scoparia, pre-emergence, 240 h, 125 g ai/ha, preemergence; 0 to 100 scale where 0 is no effect and 100 is complete control; read-out: Kochia plant response rating
Dear colleague, please send the value followed by its unit.

CN1C[C@H](c2cccc(F)c2)[C@@H](C(=O)Nc2ccccc2S(C)(=O)=O)C1=O [Compound 824]; 60%
Cc1c(F)ccc([C@H]2CNC(=O)[C@@H]2C(=O)Nc2ccccc2S(C)(=O)=O)c1F [Compound 832]; 90%
CN1C[C@H](c2cccc(C3CC3)c2)[C@@H](C(=O)Nc2cccc(F)c2F)C1=O [Compound 816]; 60%
CCOc1ccc([C@H]2CN(C)C(=O)[C@@H]2C(=O)Nc2cccc(F)c2F)cc1 [Compound 904]; 90%
CN1C[C@H](c2cc(F)cc(F)c2)[C@@H](C(=O)Nc2ccc(C(F)(F)F)cn2)C1=O [Compound 869]; 0%

Pending compound:
# value lookup — system Kochia (Kochia scoparia), readout pest or weed control at 125 g/ha, item COc1cc([C@H]2CN(C)C(=O)[C@@H]2C(=O)Nc2ccccc2F)cc(C(F)(F)F)c1 [Compound 855]
20%

---

Tested on: ivy-leaved morning glory (Ipomoea hederacea)
Experiment: Test G Post-Emergence Protocol
Format: in vivo
Details: Ipomoea, post-emergence, 312 h, 62.5 g ai/ha, evaluated after 13 days, 100=total damage to plant, 0=no damage to plant, read-out: Morningglory, Ivy-leaved damage rating
reportedProperty: pest or weed control at 62.5 g/ha
Write the numeric value and append its unit.

Some entries whose results are on file:
CN1C[C@@H](c2ccc(CO)cc2)[C@H](C(=O)Nc2cccc(F)c2F)C1=O (racemic); 0%
Cc1ccc(C2CN(C)C(=O)C2C(=O)Nc2cccc(F)c2F)cc1[N+](=O)[O-] (centres unmarked); 30%
CN1C[C@@H](c2ccc(C(F)(F)F)cc2)[C@H](C(=O)Nc2ccc(F)nn2)C1=O (racemic); 0%
CN1C[C@H](c2cc(F)cc(F)c2)[C@@H](C(=O)Nc2cnccc2C(F)(F)F)C1=O (racemic); 30%

Lab note: next compound to report on.
I'd like to know its pest or weed control at 62.5 g/ha. The compound in question is COc1cc(C2CN(C)C(=O)C2C(=O)Nc2cccc(F)c2F)cc(C(F)(F)F)c1F (centres unmarked)
0%

---

Tested on: blackgrass (Alopecurus myosuroides)
Assay: Test A postemergence
Format: in vivo
Settings: Alopecurus myosuroides, post-emergence, 240 h, 125 g ai/ha, postemergence; visual injury after approximately 10 d; 0 to 100 scale (0 no effect, 100 complete control); read-out: Plant response rating, Blackgrass
Reported pest or weed control at 125 g/ha values are given for each entry in this list.
// return numeric value only (unit: %, not printed)

What does the data say about its pest or weed control at 125 g/ha? Entry: O=C1NC[C@H](c2cnc(C(F)(F)F)nc2)[C@H]1C(=O)Nc1ccccc1F [Compound 741]
0

Would you mind doing O=C1NC[C@H](c2ccc3c(c2)OCO3)[C@H]1C(=O)Nc1cccc(F)c1F [Compound 731] as well?
0

---

Tested on: corn (Zea mays)
Assay: Test C preemergence
Format: in vivo
Conditions: 250 g ai/ha, scale 0 to 100, 0 no effect, 100 complete control
With a cut-off of 80, any Plant response rating, Corn strictly below it is called met; any Plant response rating, Corn meeting it or above is called not met.

Cc1ccc(C2CN(C)C(=O)C2C(=O)Nc2ccccc2F)cc1F (centres unmarked); not met

Plant response rating, Corn under 80? Item: CN1CC(c2ccc(C(F)(F)F)c(F)c2)C(C(=O)Nc2ccccc2F)C1=O (centres unmarked)
met

For CN1CC(c2cc(F)cc(F)c2)C(C(=O)Nc2cccc(F)c2F)C1=O (centres unmarked) then?
not met

Now this one: CN1CC(c2ccc(C(F)(F)F)c(F)c2)C(C(=O)Nc2cccc(F)c2F)C1=O (centres unmarked)
met
